# measured target: EGFR L858R/C797S (Homo sapiens, UniProt P00533, C797S/L858R)
# Sequence (P00533 25-1210 C797S/L858R): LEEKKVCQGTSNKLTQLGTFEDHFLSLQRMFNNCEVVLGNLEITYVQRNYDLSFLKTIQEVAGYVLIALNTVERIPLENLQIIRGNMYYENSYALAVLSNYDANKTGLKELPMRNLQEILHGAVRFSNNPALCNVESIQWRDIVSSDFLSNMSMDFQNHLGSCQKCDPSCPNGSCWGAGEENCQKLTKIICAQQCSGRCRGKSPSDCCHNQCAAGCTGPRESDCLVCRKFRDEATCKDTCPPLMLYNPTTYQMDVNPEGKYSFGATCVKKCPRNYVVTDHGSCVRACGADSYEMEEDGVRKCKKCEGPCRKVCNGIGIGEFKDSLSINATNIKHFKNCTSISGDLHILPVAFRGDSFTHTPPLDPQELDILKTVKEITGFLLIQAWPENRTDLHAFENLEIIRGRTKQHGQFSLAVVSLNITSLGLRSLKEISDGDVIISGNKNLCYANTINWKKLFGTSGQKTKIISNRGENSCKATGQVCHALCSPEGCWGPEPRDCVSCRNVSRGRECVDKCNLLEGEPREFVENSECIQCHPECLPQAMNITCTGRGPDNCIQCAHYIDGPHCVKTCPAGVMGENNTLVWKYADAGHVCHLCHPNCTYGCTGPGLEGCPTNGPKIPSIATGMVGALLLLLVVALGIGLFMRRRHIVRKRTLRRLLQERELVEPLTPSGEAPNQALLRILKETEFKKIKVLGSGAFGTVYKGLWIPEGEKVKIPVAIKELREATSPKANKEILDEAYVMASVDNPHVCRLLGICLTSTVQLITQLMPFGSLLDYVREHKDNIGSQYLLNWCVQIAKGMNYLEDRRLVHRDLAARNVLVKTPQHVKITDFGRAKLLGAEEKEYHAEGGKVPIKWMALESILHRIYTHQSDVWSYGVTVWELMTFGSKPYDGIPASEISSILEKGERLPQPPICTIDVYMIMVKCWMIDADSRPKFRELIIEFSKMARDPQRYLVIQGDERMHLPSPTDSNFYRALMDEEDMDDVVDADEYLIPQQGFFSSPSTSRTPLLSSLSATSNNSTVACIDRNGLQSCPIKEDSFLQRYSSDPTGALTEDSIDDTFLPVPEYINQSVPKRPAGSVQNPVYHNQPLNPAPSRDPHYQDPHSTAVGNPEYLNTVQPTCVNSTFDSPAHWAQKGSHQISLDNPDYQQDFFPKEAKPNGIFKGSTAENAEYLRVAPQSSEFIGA
# protocol details: Biochemical EGFR kinase inhibition assay (Lance Ultra TR-FRET), double mutant L858R/C797S
# test settings: IC50 L858R/C797S (nM), 100 μM ATP
Would you mind sorting the entries by IC50 according to these classes? class A (below 40 nM), class B (40 nM to below 70 nM), class C (70 nM or more)

Answered examples (10):
CN(C)Cc1ccc(C#Cc2cnc(Nc3ccnc(-c4cnn(S(=O)(=O)C5CC5)c4)n3)cc2N2CCC(C)(CO)CC2)cc1
class A
O=S(=O)(C1CC1)n1cc(-c2nccc(Nc3cc(N4CCCC(O)C4)c(C#Cc4cnn(C5CCOCC5)c4)cn3)n2)cn1 (stereo not shown)
class B
CC1(O)CCN(c2cc(Nc3ccnc(-c4cnn(S(=O)(=O)C5CC5)c4)n3)ncc2C#Cc2cccnc2)CC1
class A
CC1(O)CCN(c2cc(Nc3ccnc(-c4cnn(S(=O)(=O)C5CC5)c4)n3)ncc2C#Cc2ccc(C(=O)N3CCC(O)CC3)cc2)CC1
class A
CN1CCC2(CC1)CCN(c1cc(Nc3ccnc(-c4cnn(S(=O)(=O)C5CC5)c4)n3)ncc1C#Cc1cnn(C(F)F)c1)CC2
class B
C[C@H](Nc1cc(Nc2ccnc(-c3cnn(S(=O)(=O)C4CC4)c3)n2)ncc1C#Cc1cnn(C)c1)C(C)(C)O
class C
CC1(CO)CCN(c2cc(Nc3ccnc(-c4cnn(S(=O)(=O)C5CC5)c4)n3)ncc2C#Cc2cnn(C3CC3)c2)CC1
class A
Cn1cc(C#Cc2cnc(Nc3ccnc(-c4cnn(S(=O)(=O)C5CC5)c4)n3)cc2N2CCC(O)CC2)c(C(F)(F)F)n1
class C
CC(O)C1CCN(c2cc(Nc3ccnc(-c4cnn(S(=O)(=O)C5CC5)c4)n3)ncc2C#Cc2cnn(C(F)(F)F)c2)CC1 (stereo not shown)
class B
COC1CCN(c2cc(Nc3ccnc(-c4cnn(S(=O)(=O)C5CC5)c4)n3)ncc2C#Cc2cnn(C3CCOCC3)c2)CC1
class C

Below: the item to evaluate.
Assign a category based on measured IC50 for CC1(CO)CCN(c2cc(Nc3ccnc(-c4cnn(S(=O)(=O)C5CC5)c4)n3)ncc2C#Cc2cnn(C(F)(F)F)c2)CC1 and give only the class name.
class C
